- target.under.test: GST-SAST1 PDZ domain (human), Q9Y2H9
- Sequence (Q9Y2H9 other isoform, or with tags, fused parts or gaps limits assumed): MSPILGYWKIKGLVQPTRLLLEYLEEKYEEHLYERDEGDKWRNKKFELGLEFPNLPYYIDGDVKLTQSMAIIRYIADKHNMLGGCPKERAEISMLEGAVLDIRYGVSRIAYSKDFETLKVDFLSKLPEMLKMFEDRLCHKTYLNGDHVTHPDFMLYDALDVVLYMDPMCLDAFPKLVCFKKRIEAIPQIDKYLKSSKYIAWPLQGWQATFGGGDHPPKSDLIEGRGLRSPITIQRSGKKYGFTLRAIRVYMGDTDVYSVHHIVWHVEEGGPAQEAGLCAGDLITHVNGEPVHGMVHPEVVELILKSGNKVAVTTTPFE
- assay.details: G assay ELISA, E6 PL peptide titrated on constant GST-PDZ
Ends that are not written are not given here.
parameter.measured: pEC50
// pEC50: -log10(molar conc.)

According to the records, this binder WTGRCMSCCRSSRTRRETQL (not fully specified; cysteine pairing not given here) [HPV16 E6 C-terminal PDZ ligand peptide (20 mer, biotinylated), P03126 139-158] displays pEC50 of 6.24

Measured values drawn from patent US20040229298A1 for this set.
